Reference source for all entries: patent US20110014193A1

biological target: human α9 integrin molecule (human, UniProt Q13797 30-1035; P05556 21-798); test: cell-based or functional assay
Sequence (Q13797 30-1035 limits assumed, chain 1 of 2): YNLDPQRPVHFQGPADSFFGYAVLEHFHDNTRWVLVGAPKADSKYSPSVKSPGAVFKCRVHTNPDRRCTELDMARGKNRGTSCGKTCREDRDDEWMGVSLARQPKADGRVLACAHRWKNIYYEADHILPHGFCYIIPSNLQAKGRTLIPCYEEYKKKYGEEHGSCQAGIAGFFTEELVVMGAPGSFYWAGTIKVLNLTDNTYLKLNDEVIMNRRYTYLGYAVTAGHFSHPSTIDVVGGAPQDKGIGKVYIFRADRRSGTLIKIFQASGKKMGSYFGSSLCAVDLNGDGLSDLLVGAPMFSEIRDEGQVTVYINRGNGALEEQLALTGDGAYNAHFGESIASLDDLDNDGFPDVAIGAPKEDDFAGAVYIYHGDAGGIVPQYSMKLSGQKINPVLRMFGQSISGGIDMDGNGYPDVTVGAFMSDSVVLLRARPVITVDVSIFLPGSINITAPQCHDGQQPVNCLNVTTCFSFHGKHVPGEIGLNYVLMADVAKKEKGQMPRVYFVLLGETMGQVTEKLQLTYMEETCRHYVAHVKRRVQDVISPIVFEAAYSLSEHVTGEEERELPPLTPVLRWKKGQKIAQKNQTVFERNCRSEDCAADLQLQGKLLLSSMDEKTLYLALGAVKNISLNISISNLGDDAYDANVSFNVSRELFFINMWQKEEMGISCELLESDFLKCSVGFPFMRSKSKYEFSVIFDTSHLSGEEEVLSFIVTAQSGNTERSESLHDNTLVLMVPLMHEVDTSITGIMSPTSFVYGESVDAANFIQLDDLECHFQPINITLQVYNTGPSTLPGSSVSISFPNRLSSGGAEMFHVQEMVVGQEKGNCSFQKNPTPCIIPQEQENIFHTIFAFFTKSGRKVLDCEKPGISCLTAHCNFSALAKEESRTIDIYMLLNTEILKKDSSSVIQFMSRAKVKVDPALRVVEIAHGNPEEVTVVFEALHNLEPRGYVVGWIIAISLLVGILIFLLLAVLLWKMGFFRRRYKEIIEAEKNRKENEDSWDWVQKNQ
Sequence (P05556 21-798 limits assumed, chain 2 of 2): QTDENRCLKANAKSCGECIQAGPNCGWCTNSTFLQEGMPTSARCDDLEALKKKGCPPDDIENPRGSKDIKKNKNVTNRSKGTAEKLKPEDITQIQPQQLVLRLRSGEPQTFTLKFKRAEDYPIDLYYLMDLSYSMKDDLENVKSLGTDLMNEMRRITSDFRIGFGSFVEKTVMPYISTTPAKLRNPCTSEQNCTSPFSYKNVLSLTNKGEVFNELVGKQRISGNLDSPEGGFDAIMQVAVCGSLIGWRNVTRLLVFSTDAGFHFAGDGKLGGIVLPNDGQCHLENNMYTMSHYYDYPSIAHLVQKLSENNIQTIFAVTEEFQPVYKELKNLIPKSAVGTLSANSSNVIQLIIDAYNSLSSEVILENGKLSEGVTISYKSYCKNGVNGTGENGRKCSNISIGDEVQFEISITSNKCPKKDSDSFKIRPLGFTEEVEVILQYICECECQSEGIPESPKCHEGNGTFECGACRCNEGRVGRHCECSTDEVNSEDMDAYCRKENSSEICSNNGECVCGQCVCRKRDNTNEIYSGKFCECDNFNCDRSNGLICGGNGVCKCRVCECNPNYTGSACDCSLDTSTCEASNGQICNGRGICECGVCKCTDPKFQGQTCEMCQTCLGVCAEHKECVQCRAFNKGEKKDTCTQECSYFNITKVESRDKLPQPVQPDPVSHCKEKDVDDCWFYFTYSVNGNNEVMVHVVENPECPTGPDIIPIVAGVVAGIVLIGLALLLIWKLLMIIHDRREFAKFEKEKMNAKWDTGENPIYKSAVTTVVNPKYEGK
Examples of binders with documented IC50 (µg/mL), cell adhesion inhibition test, SW480/hα9 cells on nOPN-RAA follow.
API: value field is a number in µg/mL; no unit string.

{"Binder": "RY9A2v5(AW)01 antibody (antibody, V domains shown) VH: QVQLVQSGAEVKKPGSSVKMSCKASGYTLTTYWMHWVKQRPGQGLEWIGYINPSSGYTEYNQKFKDRVTITADKSTSTAYMELSSLRSEDTAVYYCAIYGDYGAWYFDYWGQGTTVTVSS VL: DIQMTQSPSSLSASVGDRVTITCKASQSVNTDVAWYQQKPGKAPKLLIYFASNHYTGVPSRFSGSGSGTDFTFTISSLQPEDIATYYCRQDYSSPFTFGGGTKVEIKR", "Endpoint result": 0.015}
{"Binder": "RY9A2v5(AL)01 antibody (antibody, V domains shown) VH: QVQLVQSGAEVKKPGSSVKMSCKASGYTLTTYWMHWVKQRPGQGLEWIGYINPSSGYTEYNQKFKDRVTITADKSTSTAYMELSSLRSEDTAVYYCAIYGDYGALYFDYWGQGTTVTVSS VL: DIQMTQSPSSLSASVGDRVTITCKASQSVNTDVAWYQQKPGKAPKLLIYFASNHYTGVPSRFSGSGSGTDFTFTISSLQPEDIATYYCRQDYSSPFTFGGGTKVEIKR", "Endpoint result": 0.032}
{"Binder": "RY9A2v5(SW)01 antibody (antibody, V domains shown) VH: QVQLVQSGAEVKKPGSSVKMSCKASGYTLTTYWMHWVKQRPGQGLEWIGYINPSSGYTEYNQKFKDRVTITADKSTSTAYMELSSLRSEDTAVYYCAIYGDYGSWYFDYWGQGTTVTVSS VL: DIQMTQSPSSLSASVGDRVTITCKASQSVNTDVAWYQQKPGKAPKLLIYFASNHYTGVPSRFSGSGSGTDFTFTISSLQPEDIATYYCRQDYSSPFTFGGGTKVEIKR", "Endpoint result": 0.035}

Query binder follows.
I am curious: what IC50 (µg/mL), cell adhesion inhibition test, SW480/hα9 cells on nOPN-RAA value has been reported for RY9A2v5(WE)01 antibody (antibody, V domains shown) VH: QVQLVQSGAEVKKPGSSVKMSCKASGYTLTTYWMHWVKQRPGQGLEWIGYINPSSGYTEYNQKFKDRVTITADKSTSTAYMELSSLRSEDTAVYYCAIYGDYGWEYFDYWGQGTTVTVSS VL: DIQMTQSPSSLSASVGDRVTITCKASQSVNTDVAWYQQKPGKAPKLLIYFASNHYTGVPSRFSGSGSGTDFTFTISSLQPEDIATYYCRQDYSSPFTFGGGTKVEIKR ? 0.022
